// values below are reported growth inhibition
- measurement protocol: OD615 S. cerevisiae growth inhibition, permissive medium, pilot counter-assay, permissive growth control for S. cerevisiae lifespan shortening project (AID 705)
- measurement conditions: OD615, 24 h, at 10 µM, hits give high values
quantity measured: growth inhibition (%)

INSERT INTO assay_data (compound, quantitative_result) VALUES
  ('COCCNC(=O)CN(c1ccccc1OC)S(C)(=O)=O', -6.76),
  ('C=CCn1c(SCc2ccc(F)cc2)nc2c1c(=O)[nH]c(=O)n2C', -8.99),
  ('Cc1cc(C)nc(-n2nc(C)cc2NC(=O)CN2CCC(C)CC2)n1', -0.83),
  ('Nc1ccc2nc(-c3ccc(Cl)cc3)[nH]c2c1', -13),
  ('CCn1cc(C2=NC(c3ccccc3)CO2)c2ccccc21 (stereo not given)', -11),
  ('CCOC(=O)c1ccc2nc(NC(=O)C(C)C)sc2c1', -10.9),
  ('Cc1ccc(N2CC(c3nc4ccccc4n3C)CC2=O)cc1C (stereo not given)', -4.58),
  ('CCOc1ccc(S(=O)(=O)N2CCN(S(=O)(=O)c3ccc(OCC)cc3)C(C)C2)cc1 (stereo not given)', -7.32),
  ('CC(NS(=O)(=O)c1ccc(Br)cc1)C(c1cccs1)N1CCN(C)CC1 (stereo not given)', -5.18),
  ('COc1ccc(-c2cc(C(F)(F)F)nc(N3CCN(C)CC3)n2)cc1', 1.48),
  ('Cc1ccc2c(c1)N(CCCC(=O)NCCCN1CCCC1=O)C(=O)CO2', -11.1),
  ('CCn1c(CNC(=O)c2cccc(C)c2)nc2ccccc21', -6.91),
  ('CCOc1ccc(Br)cc1/C=N/O', -17.4),
  ('Cc1cc(C)n(Cc2ccccc2F)c(=O)c1C#N', -7.71),
  ('CN(C)c1nc(-c2ccccc2)c2cnn(Cc3ccccc3)c2n1', -12.5),
  ('Cn1c(C(=O)N2CCC(C(N)=O)CC2)cc2c(=O)n(C)c3ccccc3c21', -2.25),
  ('O=C1OC(Nc2nc3ccccc3s2)c2ccccc21 (stereo not given)', -2.46),
  ('CCOC(=O)C1CCN(C(=O)C2CCN(S(=O)(=O)c3cccc4cccnc34)CC2)CC1', 4.06),
  ('CCN1CCN(CCNC(=O)C2CCN(Cc3nc(-c4ccc(Cl)cc4)oc3C)CC2)CC1', -6.21),
  ('c1ccc2c(c1)nc(NCC1CCCO1)c1nnnn12 (stereo not given)', -4.03);

###

- measurement protocol: RAM signaling pathway blockade in yeast – S. cerevisiae, Pdr1DBD-CYC8 efflux-inhibited sensitized strain, primary screen (AID 1298);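 further: 0% = DMSO untreated cells without growth and 100% = 10 µM 1-NA-PP1 full growth; higher means more yeast growth rescued from 5-FOA killing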
- measurement conditions: S. cerevisiae cbk1-as DSE1-URA3 strain, 5-FOA growth OD615, 2 d; at 50 µM; hits give high values
Reported RAM network inhibition is given for each of the following compounds.
quantity measured: RAM network inhibition (%)

INSERT INTO results (compound, result_unit, quantitative_result) VALUES
  ('O=C(O)CC1C(=O)NCCN1Cc1ccc(F)c(F)c1 (configuration not stated)', '%', -0.21),
  ('CN1CCN(S(=O)(=O)c2cccc(S(=O)(=O)c3ccc(Cl)c(Cl)c3)c2)CC1', '%', 4.5),
  ('O=C(Nc1ccc(N2CCOCC2)c(Cl)c1)C1CCCCC1', '%', 3.22),
  ('Cn1c(NC(=O)c2ccccc2Br)cc(=O)n(C)c1=O', '%', 0.36),
  ('CCOCCn1c(N(C)Cc2ccccc2)nc2c1c(=O)[nH]c(=O)n2C', '%', 5.77),
  ('CCN1CCN(c2cc(C)c3cc(NC(=O)Cc4ccc(OC)c(OC)c4)ccc3n2)CC1', '%', -0.95),
  ('COc1ccc(C2CC(C(F)(F)F)n3ncc(C(=O)O)c3N2)cc1OC (configuration not stated)', '%', -0.41),
  ('Cc1cc(NC(=O)CSc2nc3c(c(=O)n2-c2ccccc2)SC(C)C3)no1 (configuration not stated)', '%', 1.22),
  ('CCCS(=O)(=O)N1CCn2c(nc3ccccc32)C1', '%', 2.93),
  ('Cc1ccc2oc(=O)c3cnn(CC(=O)NC4CCC(C)CC4)c3c2c1 (configuration not stated)', '%', 2.93),
  ('O=C(CC1NCCNC1=O)OCCCc1ccccc1 (configuration not stated)', '%', 5.29),
  ('O=C(NCc1ccncc1)C(F)(F)C(F)(F)C(=O)NCc1ccncc1', '%', 1.22),
  ('O=C(Nc1c(C(=O)N2CCCCC2)cnn1-c1ccccc1)c1ccco1', '%', 0.25),
  ('COc1cc2c(cc1OC)CN(C(=O)C(C)(C)C)CC2', '%', -0.98),
  ('O=C(NC1CCCC1)C1C2C=CC3(CN(Cc4cccs4)C(=O)C13)O2 (configuration not stated)', '%', 5),
  ('O=C(Nc1nc(-c2cc3ccccc3oc2=O)cs1)c1ccco1', '%', 3.32),
  ('COc1cc(NC(=O)CN2CC(c3ccccc3)CC2=O)cc(OC)c1 (configuration not stated)', '%', 1.83),
  ('O=c1[nH]c(=S)[nH]nc1Cc1ccccc1', '%', 6.46),
  ('O=C(CN1C(=O)c2ccccc2C1=O)Nc1cccc2cccnc12', '%', 5.82),
  ('Cc1ccc(Cl)cc1N1CCN(C(=O)COc2ccc(S(=O)(=O)NC(C)C)cc2)CC1', '%', 6.06),
  ('Cn1c(Cn2c(=O)sc3ccccc32)nnc1SCC(=O)Nc1cccc(Cl)c1', '%', 2.23),
  ('CCCc1nc(C)c(-c2ccc(OC)c(OC)c2)c(=O)[nH]1', '%', 0.84),
  ('O=C1CC2CS(=O)(=O)CC2N1C1CCCCC1 (configuration not stated)', '%', 2.85),
  ('Cc1ccc(-c2nc(CS(=O)CC(=O)NCCN3CCCC3)c(C)o2)cc1 (configuration not stated)', '%', 0.43),
  ('CCc1c(C)sc(NC(=O)c2cc(C3CC3)on2)c1C#N', '%', -0.84),
  ('O=C(N[C@@H](Cc1ccccc1)C(=O)O)c1cccnc1', '%', 6.61),
  ('C=CCOC(=O)C1=C(C)NC(=O)NC1c1ccc(Cl)cc1 (configuration not stated)', '%', 2.31),
  ('Cc1c(C(=O)NCc2ccccc2)oc2ccc(S(=O)(=O)N3CCCC3)cc12', '%', 2.93),
  ('COC(=O)c1c(NC(=O)C2CC2)sc2c1CCN(C(C)=O)C2', '%', -1.38),
  ('COC(=O)NCC(c1cccnc1)N1CCN(c2ccccc2F)CC1 (configuration not stated)', '%', 1.57),
  ('CC(=O)c1ccc(NC(=O)C2CCC(C)(C(=O)O)C2(C)C)cc1 (configuration not stated)', '%', 3.04),
  ('O=C1CCC(=O)N1c1cccc(-c2nc3ccccc3o2)c1', '%', 4.59);
